# Test system: MS2 coat protein
# ASSAY_DETAILS: apparent KD of MS2 coat protein, switch OFF state (with FMN for OFF switches, without FMN for ON switches); designed switch direction (-1 OFF switch, 1 ON switch): 1; higher = weaker reporter binding
# SETUP_CONDITIONS: FMN input: 0 or 200 uM; Eterna round: R93 (includes R88 designs)
Parameter threshold = 50 nM. Response is Condition met when apparent KD of MS2 coat protein meets or exceeds it, else Condition not met.

Recorded results for 4 sequences are shown here.
CONSTRUCT_SEQUENCE	TEST_SYSTEM	CLASS
AAAGACGUGCAUCAGGAUAUGUUCCGAGACACAUGAGGAUCACCCAUGUGGACGAAGUCUCGGGCACAGAAGGGAUCACUCAUAA [Latibe]	MS2 coat protein	Condition not met
GAGAGGAAGAGAGAGGAUAUCCAAAGGAAAACAUGAGGAUCACCCAUGUAAAAGGUAGGAAAUUGGGAGAAGGCUCAAGAGAGAG [salish99-ss2-063]	MS2 coat protein	Condition not met
AAAAGACAUGAGGAUCACCCAUGUCAAAAGACAUGAGGAUAUGUACAGACUUCGGUCUGUACAGAAGGCAUAAAAA [SS1 - 1060]	MS2 coat protein	Condition not met
GAAAAACAUGAGGAUCACCCAUGUGAAAACUUGGGAGGAUAUACAAAGACGAAAGUCGAAGUAGAAGGCCUAUAAG [Same State 1.4l (Mat - Mod of Eli - )]	MS2 coat protein	Condition met

In plain terms: is recorded apparent KD of MS2 coat protein at least 50 nM for AAAAUAAAAUAAAAGGAUAUAAAAUAAAAAACAUGAGGAUCACCCAUGUAAAAACAUGGGAAAAAAAAGAAGGAAAAAUAAAAAA [SS2: 71 No MS2] ?
Condition met

The measurements presented in this section are drawn from the supplement of paper PMC9170038.
